Test system: 786-0 renal
test-summary: NCI-60 one-dose screen, 48 h
condition-parameters: 10 µM unless noted
Method: Cells are grown in 96 well plates and exposed to the test compound for 48 hours. Compounds are tested at a single concentration, which is 10^-5 M for most compounds. The reported endpoint is percent growth (GI% or GIPRCNT), where numbers from 0 - 100% represent growth inhibition, and numbers from -100% - 0 represent cell death. For example, a value of 40 represents 60% growth inhibition. A value of 0 means no net growth occurred over the course of the experiment. […]
This is part of a sample that, as a whole, favours compounds with a hit. Of some 83,000 tested, about 20% had one in any assay. Activity calls are given as the source filed them. How the source made its calls: active means growth percent below 10; inactive means the rest.
Just give me one of these, please: yes (1) for active, no (0) for inactive

Q: How was Cn1c(=O)c2[nH]c(=S)n(Cc3ccccc3)c2n(C)c1=O classified in this test?
Result: no (0)

Q: How was NS(=O)(=O)c1ccc(N2CC(c3nc4ccccc4[nH]3)CC2=O)cc1 (stereo unspecified) classified in this test?
Result: no (0)

Q: How was COC(=O)CC1=C(c2ccc([N+](=O)[O-])cc2)CCC1=O classified in this test?
Result: no (0)

Q: How was O=C(Nc1nc2ccc(OC(F)(F)F)cc2s1)c1ccc(F)cc1 classified in this test?
Result: no (0)

Q: How was C[C@H](C(=O)N[C@@H](Cc1ccc(-c2ccccc2)cc1)C(=O)NC1CC(C)(C)N(C)C(C)(C)C1)c1ccc(-c2ccccc2)c(F)c1 classified in this test?
Result: yes (1)

Q: How was C(#Cc1ccccc1C#Cc1ccccn1)c1ccc(OCCCCCCOc2ccc(C#Cc3ccccc3C#Cc3ccccn3)cc2)cc1 classified in this test?
Result: no (0)

Q: How was O=C(Nc1ccccc1OC(=O)c1ccccc1)c1ccccc1 classified in this test?
Result: no (0)

Q: How was Cc1cc(C)cc(S(=O)(=O)n2ccc(-c3ccc4c(c3)CCC(C)(C)O4)n2)c1 classified in this test?
Result: no (0)

Q: How was CO[C@H]1/C=C/O[C@@]2(C)Oc3c(C)c(O)c4c(O)c(c(/C=N/N5C(C)CN(Cc6ccc(C#N)cc6)CC5C)c(O)c4c3C2=O)NC(=O)/C(C)=C\C=C\[C@H](C)[C@H](O)[C@@H](C)[C@@H](O)[C@@H](C)[C@H](OC(C)=O)[C@@H]1C (stereo partly specified) classified in this test?
Result: no (0)

Q: How was Cc1cc2c(cc1C)[n+](Cc1ccc3ccccc3n1)cn2Cc1ccc2ccccc2n1 classified in this test?
Result: no (0)

Q: How was O=C(COc1cccc(/C=C2\Oc3ccc4ccccc4c3C2=O)c1)c1ccc(Cl)cc1 classified in this test?
Result: no (0)

Q: How was CCOC(=O)c1cnc2c(C)cc(C)cc2c1NCCCN(C)C classified in this test?
Result: no (0)

Q: How was Cc1ncc(C(=O)Nc2ccc(CN3CCN(C)CC3)c(C(F)(F)F)c2)cc1C#Cc1cncc2ncccc12 classified in this test?
Result: yes (1)

Q: How was COC(=O)c1cc2c(/C=C3/NC(=S)NC3=O)coc2n1C classified in this test?
Result: no (0)

Q: How was CN(C)c1ccc(-n2nc3ccccc3n2)cc1 classified in this test?
Result: no (0)

Q: How was O=C1C(=O)c2c(nc3ccc(Cl)cn23)-c2ccccc21 classified in this test?
Result: yes (1)

Q: How was N#Cc1ccc(-c2csc(Nc3ccc4nc5n(c(=O)c4c3)CCC5)n2)cc1 classified in this test?
Result: no (0)

Q: How was c1ccc(-c2nc(Nc3nccnn3)c3ccccc3n2)cc1 classified in this test?
Result: no (0)

Q: How was CCCCCCCSc1ncnc2[nH]ncc12 classified in this test?
Result: no (0)

Q: How was CCSc1nc(-c2cccs2)n2nc(-c3ccco3)cc2n1 classified in this test?
Result: no (0)

Q: How was CC(=O)Nc1ccc(C(=O)COc2cccc(/C=C3\CCc4ccccc4C3=O)c2)cc1 classified in this test?
Result: no (0)
